- PROTOCOL: in vivo
- CONDITION INFO: female, Sprague-Dawley, rat, iv, 15 mg/kg, MRT (mean residence time), pregnant rats, maternal blood, nirmatrelvir 15 mg/kg i.v. alone
MEASURED ATTRIBUTE: MRT (min)

| SMILES DATA | UNITS TEXT | VAL |
| --- | --- | --- |
| CC(C)(C)[C@H](NC(=O)C(F)(F)F)C(=O)N1C[C@H]2[C@@H]([C@H]1C(=O)N[C@H](C#N)C[C@@H]1CCNC1=O)C2(C)C | min | 48 |

* * *

- PROTOCOL: in vivo
- CONDITION INFO: female, Sprague-Dawley, rat, iv, 15 mg/kg, CL (clearance), pregnant rats, maternal blood, nirmatrelvir 15 mg/kg i.v. plus ritonavir 7 mg/kg i.v.
MEASURED ATTRIBUTE: clearance

| SMILES DATA | VAL |
| --- | --- |
| CC(C)(C)[C@H](NC(=O)C(F)(F)F)C(=O)N1C[C@H]2[C@@H]([C@H]1C(=O)N[C@H](C#N)C[C@@H]1CCNC1=O)C2(C)C | 2.14 mL/min/kg |
